# measuredTarget: HLA-B*15:01
# protocol: IEDB peptide-MHC binding, purified MHC/direct/fluorescence; filed as Kd, often an IC50 or EC50 that approximates it; bounds were set here for any values at or beyond the usual limits of such assays
# conditionParameters: source organism: Salmonella enterica subsp. enterica serovar Typhi

# sequenceInput, Kd [nM]
measured = [
    ("REILFHNTM", 180),
]

###

# measuredTarget: HLA-B*51:01
# protocol: IEDB peptide-MHC binding, purified MHC/competitive/radioactivity; filed as Kd, often an IC50 or EC50 that approximates it; bounds were set here for any values at or beyond the usual limits of such assays
# conditionParameters: source organism: Dengue virus 2 Jamaica/1409/1983
pKd: −log10 of the molar value.
Measured pKd, listed per entry.
propertyLabel: pKd

# sequenceInput, propertyLabel, reported
records = [
    ("MPSVIEKMET", "pKd", 5.02),
    ("TPRGTVMDII", "pKd", 5.62),
]

FYI, the data here is from the Immune Epitope Database (IEDB).
